The measurements presented in this section are drawn from patent US20240246960A1.

- procedureSummary: Pharmacokinetic study in rats (IV, PO)
- Format: in vivo, Sprague-Dawley rats
- statedConditions: male, Sprague-Dawley; Table B; Rat Plasma; PO; 30 mg/kg; read-out: Cmax (5 min)
reportedProperty: Cmax (ng/mL)
Numeric only. Scale: ng/mL

Any idea what its Cmax is? The compound is O=C(N[C@H]1CC[C@@H](Oc2nc(N3CCOCC3)cc3ncccc23)CC1)c1ncccn1 [Compound 123] 1570

* * *

- procedureSummary: Pharmacokinetic study in rats (IV, PO)
- Type: in vivo, Sprague-Dawley rats
- statedConditions: male, Sprague-Dawley; Table B; Rat Plasma; PO; 3 mg/kg
reportedProperty: AUC(0-t) (ng·h/mL)
Value expressed in ng·h/mL; do not type the unit.

I have this compound here, `O=C(N[C@H]1CC[C@@H](Oc2nc(N3CCOCC3)cc3ncccc23)CC1)c1ncccn1` , and I need its recorded AUC(0-t). 164

* * *

- procedureSummary: Hepatocyte stability assay, mouse hepatocytes
- Format: in vitro ADME
- statedConditions: 120 min
reportedProperty: Hepatocyte Stability (mouse) % rem. 120 min

Study these solved cases before continuing.
{"compound": "FC(F)c1ccnc2cc(N3CCOCC3)nc(O[C@H]3CC[C@@H](Nc4ncccn4)CC3)c12", "experimentalValue": "F (% remaining = 25-50%)"}
{"compound": "Cn1cnc2cnc(N[C@H]3CC[C@@H](Oc4nc(N5CCOCC5)cc5ncccc45)CC3)nc21", "experimentalValue": "E (% remaining = 0-25%)"}
{"compound": "Oc1cnc(N[C@H]2CC[C@@H](Oc3nc(N4CCOCC4)cc4ncccc34)CC2)nc1", "experimentalValue": "F (% remaining = 25-50%)"}
{"compound": "c1cnc2cc(N3CCOCC3)nc(O[C@H]3CC[C@@H](Nc4ncnc5ccsc45)CC3)c2c1", "experimentalValue": "F (% remaining = 25-50%)"}
{"compound": "c1cnc2cc(N3CCOCC3)nc(O[C@H]3CC[C@@H](Nc4ncnc5ccoc45)CC3)c2c1 [Compound 80a]", "experimentalValue": "F (% remaining = 25-50%)"}

Entry under review: `O=C(N[C@H]1CC[C@@H](Oc2nc(N3CCOCC3)cc3ncccc23)CC1)c1ncco1` . Reported Hepatocyte Stability (mouse) % rem. 120 min? F (% remaining = 25-50%)

Moving on to the next compound: `O=C(N[C@H]1CC[C@@H](Oc2nc(N3CCOCC3)cc3ncccc23)CC1)c1cncnc1` E (% remaining = 0-25%)

* * *

- procedureSummary: Pharmacokinetic study in rats (IV, PO)
- Assay type: in vivo, Sprague-Dawley rats
- statedConditions: male, Sprague-Dawley; Table B; Rat Plasma; IV; 3 mg/kg
reportedProperty: half-life
Quick note: number first, unit second.

# get_value(readout='half-life', item= `O=C(N[C@H]1CC[C@@H](Oc2nc(N3CCOCC3)cc3ncccc23)CC1)c1ncccn1` ) 59.4 min

* * *

- procedureSummary: Pharmacokinetic study in mice (IV, PO)
- Format: in vivo, mice (C57BL/6)
- statedConditions: female, C57BL/6; Table A; Mouse Plasma; IV; 3 mg/kg
reportedProperty: half-life (h)
Field: numeric (h). Do not append units.

Data request, read-out half-life, for O=C(N[C@H]1CC[C@@H](Oc2nc(N3CCOCC3)cc3ncccc23)CC1)c1ncccn1 [Compound 123] 2.14

* * *

- procedureSummary: Hepatocyte stability assay, human hepatocytes
- Format: in vitro ADME
- statedConditions: both sexes, human, cryopreserved hepatocytes, pH 7.3; 0.7 million cells per mL; 1 uM compound
reportedProperty: hepatocyte CLint at 1 uM

Recorded hepatocyte CLint at 1 uM, per entry:
{"molecule": "Cc1ccnc(N[C@H]2CC[C@@H](Oc3nc(N4CCOCC4)cc4ncccc34)CC2)n1 [Compound 48]", "experimentalValue": "< 8.2 µL/min/1e6 cells"}
{"molecule": "O=C(N[C@H]1CC[C@@H](Oc2nc(N3CCOCC3)cc3ncccc23)CC1)c1c[nH]cn1 [Compound 144]", "experimentalValue": "< 8.2 µL/min/1e6 cells"}
{"molecule": "COc1ccnc(N[C@H]2CC[C@@H](Oc3nc(N4CCOCC4)cc4ncccc34)CC2)n1 [Compound 49]", "experimentalValue": "> 8.2 µL/min/1e6 cells"}
{"molecule": "CS(=O)(=O)Nc1cnc(N[C@H]2CC[C@@H](Oc3nc(N4CCOCC4)cc4ncccc34)CC2)nc1 [Compound 44]", "experimentalValue": "< 8.2 µL/min/1e6 cells"}
{"molecule": "Oc1cnc(N[C@H]2CC[C@@H](Oc3nc(N4CCOCC4)cc4ncccc34)CC2)nc1 [Compound 45]", "experimentalValue": "< 8.2 µL/min/1e6 cells"}
{"molecule": "FC(F)c1ccnc2cc(N3CCOCC3)nc(O[C@H]3CC[C@@H](Nc4ncccn4)CC3)c12 [Compound 22]", "experimentalValue": "> 8.2 µL/min/1e6 cells"}
{"molecule": "CS(=O)(=O)Nc1cnc2cc(N3CCOCC3)nc(O[C@H]3CC[C@@H](NC(=O)c4ncco4)CC3)c2c1 [Compound 205]", "experimentalValue": "< 8.2 µL/min/1e6 cells"}
{"molecule": "CN(C)C(=O)c1cnc(N[C@H]2CC[C@@H](Oc3nc(N4CCOCC4)cc4ncccc34)CC2)nc1 [Compound 53]", "experimentalValue": "< 8.2 µL/min/1e6 cells"}
{"molecule": "CS(=O)(=O)Nc1cnc2cc(N3CCOCC3)nc(O[C@H]3CC[C@@H](Nc4ncccn4)CC3)c2c1 [Compound 185]", "experimentalValue": "< 8.2 µL/min/1e6 cells"}
{"molecule": "COc1cnc(N[C@H]2CC[C@@H](Oc3nc(N4CCOCC4)cc4ncc(NS(C)(=O)=O)cc34)CC2)nc1 [Compound 203]", "experimentalValue": "< 8.2 µL/min/1e6 cells"}

// returns reported hepatocyte CLint at 1 uM for input FC(F)c1ccc2c(O[C@H]3CC[C@@H](Nc4ncccn4)CC3)nc(N3CCOCC3)cc2n1 [Compound 21] < 8.2 µL/min/1e6 cells

For NC(=O)c1cnc(N[C@H]2CC[C@@H](Oc3nc(N4CCOCC4)cc4ncccc34)CC2)nc1 [Compound 52] then? < 8.2 µL/min/1e6 cells

What do we get for c1cnc2cc(N3CCOCC3)nc(O[C@H]3CC[C@@H](Nc4ncnc5ccoc45)CC3)c2c1 [Compound 80a] ? < 8.2 µL/min/1e6 cells

Next molecule up: c1cnc2cc(N3CCOCC3)nc(O[C@H]3CC[C@@H](Nc4ncc5sccc5n4)CC3)c2c1 [Compound 84] > 8.2 µL/min/1e6 cells

Here is the next molecule: O=C(N[C@H]1CC[C@@H](Oc2nc(N3CCOCC3)cc3ncccc23)CC1)c1cc[nH]c1 [Compound 140] < 8.2 µL/min/1e6 cells

Now the molecule Nc1cnc(N[C@H]2CC[C@@H](Oc3nc(N4CCOCC4)cc4ncccc34)CC2)nc1 [Compound 43] < 8.2 µL/min/1e6 cells

Next entry: NS(=O)(=O)c1cnc(N[C@H]2CC[C@@H](Oc3nc(N4CCOCC4)cc4ncccc34)CC2)nc1 [Compound 46] < 8.2 µL/min/1e6 cells

* * *

- assayedSystem: pDNA-PK ser2056 induction in HCT116 spheroids (Homo sapiens)
- Construct: endogenous in cells; host or cells: HCT116 multicellular tumour spheroids
- procedureSummary: Multicellular tumour spheroid + radiation, pDNA-PK inhibition, HCT116
- Type: cell-based
- statedConditions: Example 7; spheroid, cell line HCT115 [sic]; 20 Gy; 20% O2; read-out: EC50 (pDNA-PK inhibition, immunohistochemical endpoint)
- Experimental: Multicellular tumour spheroids determination of compound inhibition of pDNA-PK induction following radiation. […] Multicellular tumour spheroids determination of compound inhibition of pDNA-PK induction following radiation. […] For cell survival endpoint 8 Gy radiation was used and 3 hours following radiation spheroids were dissociated, counted and plated for colony forming endpoint. […]
pEC50: −log10 of the molar value.
pEC50 reference

Would you please look over these solved cases?
{"compound": "O=C(N[C@H]1CC[C@@H](Oc2nc(N3CCOCC3)cc3ncccc23)CC1)c1ccc[nH]1 [Compound 145]", "experimentalValue": "6.30 to 8.00"}
{"compound": "FC(F)(F)c1cnc(N[C@H]2CC[C@@H](Oc3nc(N4CCOCC4)cc4ncccc34)CC2)nc1 [Compound 34]", "experimentalValue": "5.00 to 6.00"}
{"compound": "O=C(N[C@H]1CC[C@@H](Oc2nc(N3CCOCC3)cc3ncccc23)CC1)c1ncc(Cl)cn1 [Compound 124]", "experimentalValue": "5.00 to 6.00"}
{"compound": "COc1ccnc(C(=O)N[C@H]2CC[C@@H](Oc3nc(N4CCOCC4)cc4ncccc34)CC2)n1 [Compound 131]", "experimentalValue": "5.00 to 6.00"}

If you can, please state the reported pEC50 value of c1cnc2cc(N3CCOCC3)nc(O[C@H]3CC[C@@H](Nc4ncnc5occc45)CC3)c2c1 [Compound 82] . 6.30 to 8.00

Follow-up entry: O=C(N[C@H]1CC[C@@H](Oc2nc(N3CCOCC3)cc3ncccc23)CC1)c1cccnn1 [Compound 120] 5.00 to 6.00

Lookup CS(=O)(=O)Nc1cnc2cc(N3CCOCC3)nc(O[C@H]3CC[C@@H](NC(=O)c4ncco4)CC3)c2c1 [Compound 205] 5.00 to 6.00

Same again, this time with Cc1ccnc(N[C@H]2CC[C@@H](Oc3nc(N4CCOCC4)cc4ncccc34)CC2)n1 [Compound 48] 6.00 to 6.30

Moving on to Cn1ccc(N[C@H]2CC[C@@H](Oc3nc(N4CCOCC4)cc4ncccc34)CC2)n1 [Compound 30] 4.00 to 5.00

Repeat for the following compound: CN(C)C(=O)c1cnc(N[C@H]2CC[C@@H](Oc3nc(N4CCOCC4)cc4ncccc34)CC2)nc1 [Compound 53] 6.00 to 6.30

What would you report for O=C(N[C@H]1CC[C@@H](Oc2nc(N3CCOCC3)cc3ncccc23)CC1)c1ccccn1 [Compound 114] ? 5.00 to 6.00

What do we get for O=C(N[C@H]1CC[C@@H](Oc2nc(N3CCOCC3)cc3ncccc23)CC1)c1cc[nH]n1 [Compound 138] ? 6.00 to 6.30
